biological target: HCV NS5B (Hepatitis C virus genotype 1b, UniProt Q9WMX2); construct: The protein was expressed with an 18 amino acid C-terminal truncation to enhance the solubility; made in house; host or cells: E. coli BL21 (DE3), pET21a; test: HCV NS5B RdRp enzyme assay (preincubation protocol); assay type: biochemical; conditions: Table 1, read-out: IC50*
Sequence (Q9WMX2 2420-2992): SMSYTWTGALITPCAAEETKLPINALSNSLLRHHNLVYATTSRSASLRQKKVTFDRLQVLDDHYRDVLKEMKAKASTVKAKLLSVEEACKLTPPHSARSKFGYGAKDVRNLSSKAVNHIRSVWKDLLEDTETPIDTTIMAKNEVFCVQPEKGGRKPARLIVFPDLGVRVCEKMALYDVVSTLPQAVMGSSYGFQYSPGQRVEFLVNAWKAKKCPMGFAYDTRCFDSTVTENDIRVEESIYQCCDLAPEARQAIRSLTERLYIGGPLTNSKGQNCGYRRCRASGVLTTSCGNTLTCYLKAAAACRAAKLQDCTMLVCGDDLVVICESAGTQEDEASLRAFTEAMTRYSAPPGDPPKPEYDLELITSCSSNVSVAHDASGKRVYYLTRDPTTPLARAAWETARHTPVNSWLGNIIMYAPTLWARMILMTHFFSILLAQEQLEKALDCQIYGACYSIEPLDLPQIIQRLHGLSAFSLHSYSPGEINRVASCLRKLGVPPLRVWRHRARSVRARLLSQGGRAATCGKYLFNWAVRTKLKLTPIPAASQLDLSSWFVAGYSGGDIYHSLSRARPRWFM
pIC50: −log10 of the molar value.
observationType: pIC50

Known pIC50 results, listed for orientation:
>  <molecule>
COc1ccc2c(c1)C=C(C(=O)N1CCC(N3CCOCC3)CC1)Cn1c-2c(C2CCCCC2)c2ccc(C(=O)O)cc21

>  <targetOrSystem>
HCV NS5B (Hepatitis C virus genotype 1b, UniProt Q9WMX2)

>  <pIC50>
6.00 to 8.00

$$$$
>  <molecule>
CC(=O)NN(C)C(=O)C1=Cc2ccccc2-c2c(C3CCCCC3)c3ccc(C(=O)NS(=O)(=O)N(C)C)cc3n2C1

>  <targetOrSystem>
HCV NS5B (Hepatitis C virus genotype 1b, UniProt Q9WMX2)

>  <pIC50>
6.00 to 8.00

$$$$
>  <molecule>
COc1ccc2c(c1)C=C(C(=O)N1CCOCC1)Cn1c-2c(C2CCCCC2)c2ccc(C(=O)NS(=O)(=O)N3CCN(C)CC3)cc21

>  <targetOrSystem>
HCV NS5B (Hepatitis C virus genotype 1b, UniProt Q9WMX2)

>  <pIC50>
6.00 to 8.00

$$$$
>  <molecule>
O=C(NC1Cc2ccccc2-c2c(C3CCCCC3)c3ccc(C(=O)O)cc3n2C1)OCc1ccccc1 (stereo not shown)

>  <targetOrSystem>
HCV NS5B (Hepatitis C virus genotype 1b, UniProt Q9WMX2)

>  <pIC50>
6.00 to 8.00

$$$$
>  <molecule>
CN(C)S(=O)(=O)NC(=O)c1ccc2c(C3CCCCC3)c3n(c2c1)CC(C(=O)N1C[C@@H]2C[C@H]1CO2)=Cc1ccccc1-3

>  <targetOrSystem>
HCV NS5B (Hepatitis C virus genotype 1b, UniProt Q9WMX2)

>  <pIC50>
6.00 to 8.00

$$$$
>  <molecule>
CN(C)S(=O)(=O)NC(=O)c1ccc2c(C3CCCCC3)c3n(c2c1)CC(C(=O)N1CCN(C(=O)N2CCOCC2)CC1)=Cc1ccccc1-3

>  <targetOrSystem>
HCV NS5B (Hepatitis C virus genotype 1b, UniProt Q9WMX2)

>  <pIC50>
6.00 to 8.00

$$$$

Field: next molecule
Reported pIC50 for C[C@@H]1CN(C(=O)C2=Cc3ccccc3-c3c(C4CCCCC4)c4ccc(C(=O)NCCN5CCOCC5)cc4n3C2)C[C@H](C)O1 : what is it?
6.00 to 8.00

###

Give IC50 for every item shown.
target: HCV NS5B (Hepatitis C virus genotype 1b); construct: The protein was expressed with an 18 amino acid C-terminal truncation to enhance the solubility; made in house; host or cells: E. coli BL21 (DE3), pET21a; assay: HCV NS5B RdRp enzyme assay (preincubation protocol); assay type: biochemical; conditions: Table 1a, read-out: IC50*

Known IC50 results, listed for orientation:
>  <molecule>
COc1ccc2c(c1)C=C(C(=O)N1CCN(C(=O)c3ccco3)CC1)Cn1c-2c(C2CCCCC2)c2ccc(C(=O)NS(=O)(=O)N(C)C)cc21

>  <IC50>
10 to 1000 nM

$$$$
>  <molecule>
Cc1cnc(CNC(=O)c2ccc3c(C4CCCCC4)c4n(c3c2)CC(C(=O)N2CCC(N3CCOCC3)CC2)=Cc2ccccc2-4)cn1

>  <IC50>
10 to 1000 nM

$$$$

Field: next molecule
Reported IC50 for COc1ccc2c(c1)C[C@@H](C(=O)N1CCC[C@H](OC(C)=O)C1)Cn1c-2c(C2CCCCC2)c2ccc(C(=O)NS(=O)(=O)N(C)C)cc21 [drawing 326] : what is it?
10 to 1000 nM
